Answer each item with its documented EC50.
target: DCN1 (Homo sapiens (Human), UniProt Q96GG9); assay: TR-FRET binding assay (biotin-DCN1 / Ac-UBE2M12-AlexaFluor488); conditions: mean ± SD (n); read-out: DCN1_TRFRET Mean EC50
Sequence (Q96GG9 whole entry): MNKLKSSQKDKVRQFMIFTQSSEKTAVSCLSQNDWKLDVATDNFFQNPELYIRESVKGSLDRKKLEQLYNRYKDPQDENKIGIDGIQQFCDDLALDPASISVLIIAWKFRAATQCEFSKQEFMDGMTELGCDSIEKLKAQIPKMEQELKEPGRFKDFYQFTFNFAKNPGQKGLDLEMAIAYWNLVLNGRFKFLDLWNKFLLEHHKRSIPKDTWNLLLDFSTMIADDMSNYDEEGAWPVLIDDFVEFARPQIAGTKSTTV
One number for each entry, in µM.

Reference set, count: 10
COMPOUND	SUBJECT_OF_TEST	QUANTITY_MEASURED	ASSAY_RESULT
CCN1C(=O)[C@@H](NC(=O)c2cccc(C(F)(F)F)c2)[C@@H](c2ccc(F)cc2)c2c(CNC(=O)CC(C)C)nn(-c3ccccc3)c21	DCN1 (Homo sapiens (Human), UniProt Q96GG9)	EC50	0.114
CCN1C(=O)[C@@H](NC(=O)c2cccc(C)c2)[C@@H](c2ccc(F)cc2)c2c(C)nn(C3CC3)c21	DCN1 (Homo sapiens (Human), UniProt Q96GG9)	EC50	0.19
CCN1C(=O)[C@@H](NC(=O)c2cccc(C)c2)[C@@H](c2ccc(F)cc2)c2c(C)nn(C3CCCC3)c21	DCN1 (Homo sapiens (Human), UniProt Q96GG9)	EC50	0.77
CCOC(=O)Cn1nc(C)c2c1N(CC)C(=O)[C@@H](NC(=O)c1cccc(C(F)(F)F)c1)[C@H]2c1ccc(F)cc1	DCN1 (Homo sapiens (Human), UniProt Q96GG9)	EC50	3.53
CCC(C)n1nc(C)c2c1N(C(C)=O)C(=O)[C@@H](NC(=O)c1cccc(C)c1)[C@H]2c1ccc(F)cc1 (some centres unmarked)	DCN1 (Homo sapiens (Human), UniProt Q96GG9)	EC50	5.31
C=CC(=O)NCc1nn(-c2ccccc2)c2c1[C@H](c1ccc(F)cc1)[C@H](NC(=O)c1cccc(C)c1)C(=O)N2CC	DCN1 (Homo sapiens (Human), UniProt Q96GG9)	EC50	0.0968
CCCn1nc(C)c2c1N(CC)C(=O)[C@@H](NC(=O)c1cccc(C)c1)[C@H]2c1ccc(F)cc1	DCN1 (Homo sapiens (Human), UniProt Q96GG9)	EC50	0.244
CCN1C(=O)[C@@H](NC(=O)c2cccc(C(F)(F)F)c2)[C@@H](c2cccs2)c2c(C)nn(-c3ccccc3)c21	DCN1 (Homo sapiens (Human), UniProt Q96GG9)	EC50	1.33
CCN1C(=O)[C@@H](NC(=O)c2cccc(C)c2F)[C@@H](c2ccc(F)cc2)c2c(C)nn(-c3ccccc3)c21	DCN1 (Homo sapiens (Human), UniProt Q96GG9)	EC50	0.541
Cc1nn(-c2ccccc2)c2c1[C@H](c1ccc(F)cc1)[C@H](NC(=O)c1cccc(C(F)(F)F)c1)C(=O)N2C1CCC1	DCN1 (Homo sapiens (Human), UniProt Q96GG9)	EC50	2.58

Batch of 6 compounds: report EC50 for each.
1. CCN1C(=O)[C@@H](NC(=O)c2cccc(OC)c2)[C@@H](c2ccc(F)cc2)c2c(C)nn(-c3ccccc3)c21
2. CCN1C(=O)[C@@H](NC(=O)c2cccc(C(F)(F)F)c2)[C@@H](c2ccc(F)cc2)c2c(CNC(=O)OC)nn(-c3ccccc3)c21
3. CCN1C(=O)[C@@H](NC(=O)c2cccc(Oc3ccccc3)c2)[C@@H](c2ccc(F)cc2)c2c(C)nn(-c3ccccc3)c21
4. Cc1cccc(C(=O)N[C@@H]2C(=O)N3CCCn4nc(C)c(c43)[C@@H]2c2ccc(F)cc2)c1
5. CCN1C(=O)[C@@H](NC(=O)c2ccc3ncsc3c2)[C@@H](c2ccc(F)cc2)c2c(C)nn(-c3ccccc3)c21
6. CCN1C(=O)[C@@H](NC(=O)c2cccc(C(F)(F)F)c2)[C@@H](c2ccc(F)cc2)c2c(CN3CCC(C)CC3)nn(-c3ccccc3)c21

Output line:
1. 0.629
2. 0.114
3. 5.93
4. 12.3
5. 6.31
6. 0.0827
